Molecular target: T1, CRBN, Q96SW2;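 also: pooled lentiviral library of zinc finger degron-EGFP fusions in mCherry-positive Jurkat cells, FACS-sorted after compound exposure, with degron abundance counted by next-generation sequencing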
T1 chain: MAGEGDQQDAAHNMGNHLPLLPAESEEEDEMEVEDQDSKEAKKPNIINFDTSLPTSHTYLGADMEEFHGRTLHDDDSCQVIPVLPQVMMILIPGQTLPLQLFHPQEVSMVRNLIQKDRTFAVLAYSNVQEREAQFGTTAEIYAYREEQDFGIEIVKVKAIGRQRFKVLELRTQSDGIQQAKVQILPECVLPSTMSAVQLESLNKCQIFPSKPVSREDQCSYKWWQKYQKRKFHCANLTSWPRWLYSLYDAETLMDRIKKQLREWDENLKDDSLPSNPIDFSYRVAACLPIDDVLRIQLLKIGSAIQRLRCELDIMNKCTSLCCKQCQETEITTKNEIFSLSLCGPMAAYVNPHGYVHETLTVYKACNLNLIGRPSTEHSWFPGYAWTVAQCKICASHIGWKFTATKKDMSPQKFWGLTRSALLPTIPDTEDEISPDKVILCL
Assay: log2 fold change of degron read counts, EGFP-low vs EGFP+ sorted cells (limma voom), compound-induced degradation; higher = more compound-induced degradation of the degron-EGFP fusion; degrons are variants of IKZF1/3 zinc finger 2; compound dose not given here
Settings: Jurkat; 18 h; compound: compound 33 (diphenyl IMiD analogue)
Whole data set: some 8,300 sequences, median “log2 fold change of degron read counts, EGFP-low vs EGFP+ sorted cells (limma voom), compound-induced degradation” near -1.1, cut for the highest 2% near 3.2. The sample holds the highest values, similar sequences and a random draw of the others, so the mix is not that of the screen.
QUANTITY: log2 fold change of degron read counts

INSERT INTO assay_data (residue_sequence, result_number) VALUES
  ('FKCEICGADFTQKGNLLRHIKL [46F_47K_49E_50I_52G_53A_54D_55F_67L_, Q9UKT9]', -2.54),
  ('FGCEVCGAAFTQKGNLLRHIKL [46F_47G_49E_50V_52G_53A_54A_55F_67L_, Q9UKT9]', 1.96),
  ('FRCEICGACFTQKGNLLRHIKL [46F_47R_49E_50I_52G_53A_54C_55F_67L_, Q9UKT9]', 1.83),
  ('FYCEVCGAAFTQKGNLLRHIKL [46F_47Y_49E_50V_52G_53A_54A_55F_67L_, Q9UKT9]', 2.98),
  ('FFCPQCGAEFTQKGNLLRHIKL [46F_47F_49P_50Q_52G_53A_54E_55F_67L_, Q9UKT9]', -0.943),
  ('FSCPICGAEFTQKGNLLRHIKL [46F_47S_49P_50I_52G_53A_54E_55F_67L_, Q9UKT9]', 1.41),
  ('FDCEICGACFTQKGNLLRHIKL [46F_47D_49E_50I_52G_53A_54C_55F_67L_, Q9UKT9]', 0.629),
  ('FQCPICGAEFTQKGNLLRHIKL [46F_47Q_49P_50I_52G_53A_54E_55F_67L_, Q9UKT9]', 2.51),
  ('FYCPVCGAAFTQKGNLLRHIKL [46F_47Y_49P_50V_52G_53A_54A_55F_67L_, Q9UKT9]', 2.36),
  ('FNCNICGAIFTQKGNLLRHIKL [46F_47N_49N_50I_52G_53A_54I_55F_67L_, Q9UKT9]', -0.567),
  ('FFCNICGAEFTQKGNLLRHIKL [46F_47F_49N_50I_52G_53A_54E_55F_67L_, Q9UKT9]', 0.373),
  ('FCCNVCGAAFTQKGNLLRHIKL [46F_47C_49N_50V_52G_53A_54A_55F_67L_, Q9UKT9]', 0.918),
  ('FHCEICGHSFTQKGNLLRHIKL [46F_47H_49E_50I_52G_53H_54S_55F_67L_, Q9UKT9]', -2.79),
  ('LCCEICGFHCTQKGNLLRHIKL [46L_47C_49E_50I_52G_53F_54H_55C_67L_, Q9UKT9]', 1.51),
  ('FQCEVCGAAFTQKGNLLRHIKL [46F_47Q_49E_50V_52G_53A_54A_55F_67L_, Q9UKT9]', 2.22),
  ('FMCEICGACFTQKGNLLRHIKL [46F_47M_49E_50I_52G_53A_54C_55F_67L_, Q9UKT9]', 2.53),
  ('FWCPICGHYFTQKGNLLRHIKL [46F_47W_49P_50I_52G_53H_54Y_55F_67L_, Q9UKT9]', -0.506),
  ('FTCEICGACFTQKGNLLRHIKL [46F_47T_49E_50I_52G_53A_54C_55F_67L_, Q9UKT9]', 2.49),
  ('FMCEVCGAAFTQKGNLLRHIKL [46F_47M_49E_50V_52G_53A_54A_55F_67L_, Q9UKT9]', 2.75),
  ('FACPQCGAVFTQKGNLLRHIKL [46F_47A_49P_50Q_52G_53A_54V_55F_67L_, Q9UKT9]', -0.148),
  ('FDCPICGRMFTQKGNLLRHIKL [46F_47D_49P_50I_52G_53R_54M_55F_67L_, Q9UKT9]', 1.09),
  ('LYCEICGFVCTQKGNLLRHIKL [46L_47Y_49E_50I_52G_53F_54V_55C_67L_, Q9UKT9]', 2.43),
  ('FHCEVCGAAFTQKGNLLRHIKL [46F_47H_49E_50V_52G_53A_54A_55F_67L_, Q9UKT9]', 1.84),
  ('FYCNVCGAAFTQKGNLLRHIKL [46F_47Y_49N_50V_52G_53A_54A_55F_67L_, Q9UKT9]', 1.33),
  ('FCCEICGACFTQKGNLLRHIKL [46F_47C_49E_50I_52G_53A_54C_55F_67L_, Q9UKT9]', 2.71),
  ('FNCEVCGAAFTQKGNLLRHIKL [46F_47N_49E_50V_52G_53A_54A_55F_67L_, Q9UKT9]', 0.0337),
  ('FWCEVCGAAFTQKGNLLRHIKL [46F_47W_49E_50V_52G_53A_54A_55F_67L_, Q9UKT9]', 2.77),
  ('FKCEICGRDFTQKGNLLRHIKL [46F_47K_49E_50I_52G_53R_54D_55F_67L_, Q9UKT9]', -3.24),
  ('LACEICGFHCTQKGNLLRHIKL [46L_47A_49E_50I_52G_53F_54H_55C_67L_, Q9UKT9]', 0.86);
